- assay protocol: Bioavailability in the portal circulation after 10 minutes was determined after intraduodenal dose of 10 mg/kg in rat by HPLC method
- Type: ADME, organism-based
- run parameters: plasma (portal circulation), read-out: Plasma level
attribute measured: concentration at 10 min (ng/mL)

Some entries whose results are on file:
• CC(C)C[C@H](O)[C@H](O)[C@H](CC1CCCCC1)NC(=O)[C@H](Cc1cscn1)NC(=O)[C@@H](CC(=O)N(C)CCn1cccn1)Cc1ccccc1 = 1900
• COCCOCOCCN(C)C(=O)C[C@@H](Cc1ccccc1)C(=O)N[C@@H](Cc1c[nH]cn1)C(=O)N[C@@H](CC1CCCCC1)[C@@H](O)[C@@H](O)CC(C)C = 1900
• CC(C)C[C@H](O)[C@H](O)[C@H](CC1CCCCC1)NC(=O)[C@H](Cn1cccn1)NC(=O)[C@@H](CC(=O)N(C)CCc1ccccn1)Cc1ccccc1 = 2200
• COCCN(C)C(=O)C[C@@H](Cc1ccccc1)C(=O)N[C@@H](Cc1cscn1)C(=O)N[C@@H](CC1CCCCC1)[C@@H](O)[C@@H](O)CC(C)C = 930
• CC(C)C[C@H](O)[C@H](O)[C@H](CC1CCCCC1)NC(=O)[C@H](Cc1cscn1)NC(=O)[C@H](Cc1ccccc1)CS(=O)(=O)C1CN(C)C1 = 1800

P = CC(C)C[C@H](O)[C@H](O)[C@H](CC1CCCCC1)NC(=O)[C@H](Cc1cscn1)NC(=O)[C@@H](CC(=O)N(C)CCn1ccnc1)Cc1ccccc1
Q = CC(C)C[C@H](O)[C@H](O)[C@H](CC1CCCCC1)NC(=O)[C@H](Cc1cscn1)NC(=O)[C@@H](CC(=O)N(C)CCCN(C)C)Cc1ccccc1
QUERY: Lab notebook, comparison: P versus Q , higher concentration at 10 min goes to which? Give the label under which the chosen entry appears.
RESULT: Q

---

- assay protocol: Peak concentration was determined in systemic circulation after intraduodenal dose of 10 mg/kg in monkey, determined by renin inhibition assay
- Format: ADME, organism-based
- Parameters: dose 10 mg/kg, route intraduodenal
- run parameters: simiiformes, in vivo, read-out: Activity
attribute measured: Cmax (ng/mL)
Dear colleague, please return just the value in ng/mL, with no unit written.

QUERY: Requested field: Cmax. Item: CC(C)C[C@H](O)[C@H](O)[C@H](CC1CCCCC1)NC(=O)[C@H](Cc1cscn1)NC(=O)[C@@H](CC(=O)N(C)CCc1ccccn1)Cc1ccccc1
RESULT: 70

---

- assay protocol: Bioavailability was determined after intraduodenal dose of 10 mg/kg in monkey (compared to 1 mg/kg intravenous dose)
- Type: ADME, organism-based
- run parameters: simiiformes, in vivo, read-out: Bioavailabiility
attribute measured: bioavailability (%)
Dear colleague, please return just the value in %, with no unit written.

QUERY: Requested field: bioavailability. Item: CC(C)C[C@H](O)[C@H](O)[C@H](CC1CCCCC1)NC(=O)[C@H](Cc1cscn1)NC(=O)[C@H](Cc1ccccc1)CS(=O)(=O)N1CCN(C)CC1 [ZANKIREN]
RESULT: 5.1

---

- assay protocol: Bioavailability in the systemic circulation after 10 minutes was determined after intraduodenal dose of 15 mg/kg in rat by renin inhibition assay
- Format: ADME, organism-based
- run parameters: plasma (systemic circulation), read-out: Plasma level
attribute measured: concentration at 10 min (ng/mL)
Dear colleague, please return just the value in ng/mL, with no unit written.

QUERY: Requested field: concentration at 10 min. Item: CC(C)C[C@H](O)[C@H](O)[C@H](CC1CCCCC1)NC(=O)[C@H](Cc1cscn1)NC(=O)[C@H](Cc1ccccc1)CS(=O)(=O)N1CCN(C)CC1
RESULT: 280
